Read-out: TIMP metallopeptidase inhibitor 2 (TIMP2), TIMP2 (gene 7077)
Assay: BSK_KF3CT_TIMP2: BioMAP Diversity Plus: KF3CT Assay for TIMP metallopeptidase inhibitor 2 (TIMP2) Biomarker Activity (AID 2283071)
Details: primary human keratinocytes with fibroblasts; actives raise or lower the signal
The source made the active and inactive calls. How the source made its calls: active means hit-call score of the fitted dose curve at least 0.9, where 1 is the maximum; inactive means score below 0.9.
Reported Property: AC50

Observe how each entry below is paired with its result.
[
  {
    "Molecule": "Cc1ccc(N=Nc2c(O)ccc3ccccc23)c(C)c1",
    "AC50": "4.11 µM (active)"
  },
  {
    "Molecule": "O=C1c2ccc(O)c(O)c2C(=O)c2c(O)ccc(O)c21",
    "AC50": "inactive"
  },
  {
    "Molecule": "CCCCCCCCCCCCOS(=O)(=O)O",
    "AC50": "29.3 µM (active)"
  },
  {
    "Molecule": "C[C@]12CC[C@@H]3c4ccc(O)cc4CC[C@H]3[C@@H]1C[C@@H](O)[C@@H]2O",
    "AC50": "inactive"
  },
  {
    "Molecule": "Oc1ccc(Cc2ccccc2O)cc1",
    "AC50": "inactive"
  }
]

GET /value?item= O=P(O)(O)CCC(F)(F)C(F)(F)C(F)(F)C(F)(F)C(F)(F)C(F)(F)F &field=AC50 returns inactive

GET /value?item= CN(C)c1ccc(C(=C2C=CC(=[N+](C)C)C=C2)c2ccccc2)cc1 &field=AC50 returns 0.795 µM (active)

====

Experiment: ATG_PPRE_CIS: Attagene CIS-FACTORIAL HepG2 Assay for human Peroxisome Proliferator-activated Response Element (PPRE) (AID 2282958)
Details: HepG2 PPRE cis-element reporter, Attagene transcription factor profiling; actives raise or lower the signal
Calls of active or inactive are those of the source. The calls were made as follows: active = hit-call score of the fitted dose curve at least 0.9, where 1 is the maximum; inactive = score below 0.9.
Returns: one label drawn from 1 (yes) for active, 0 (no) for inactive

[
  {
    "Compound": "COCN(COC)c1nc(N(COC)COC)nc(N(COC)COC)n1",
    "Label": "0 (no)"
  },
  {
    "Compound": "CCCCCCCCCCCC[N+](C)(C)Cc1ccccc1",
    "Label": "0 (no)"
  },
  {
    "Compound": "FC(F)(F)C(F)(F)C(F)(F)Br",
    "Label": "0 (no)"
  },
  {
    "Compound": "COCC1CCC(CO)CC1 (stereo not given)",
    "Label": "0 (no)"
  },
  {
    "Compound": "OCC(CO)(CBr)CBr",
    "Label": "0 (no)"
  }
]

Returns: the outcome recorded for COC1=CC(=O)C[C@@H](C)[C@]12Oc1c(Cl)c(OC)cc(OC)c1C2=O in this assay. 0 (no)

Returns: the outcome recorded for CCCCCCCCCCCC[N+](C)(C)CCCCCCCCCCCC in this assay. 0 (no)

Returns: the outcome recorded for CCCCCCCCCCCCCCCCCC[N+](C)(C)Cc1ccccc1 in this assay. 1 (yes)

Returns: the outcome recorded for O=C(O)CN(CCCN(CC(=O)O)CC(=O)O)CC(=O)O in this assay. 0 (no)

Returns: the outcome recorded for COc1ccccc1NC(=O)c1cc2ccccc2cc1O in this assay. 0 (no)

====

Read-out: CD40, CD40 (gene 958)
Experiment: BSK_SAg_CD40: BioMAP Diversity Plus: SAg Assay for CD40 Biomarker Activity (AID 2283088)
Conditions: primary human HUVEC with PBMC; actives raise or lower the signal
Activity calls are given as the source filed them. Rule for the calls: active = hit-call score of the fitted dose curve at least 0.9, where 1 is the maximum; inactive = score below 0.9.
Returns: one label drawn from active, inactive

Solved cases below.
[
  {
    "Input Smiles": "O=C1c2ccc(O)c(O)c2C(=O)c2c(O)ccc(O)c21",
    "Label": "inactive"
  },
  {
    "Input Smiles": "CCCCCc1ccc(O)cc1",
    "Label": "active"
  },
  {
    "Input Smiles": "CC1=NN(c2ccccc2)C(=O)C1",
    "Label": "inactive"
  },
  {
    "Input Smiles": "Cc1[nH]nc2c1N=C(c1ccccc1Cl)c1cc([N+](=O)[O-])ccc1N2",
    "Label": "active"
  }
]

Could you now look at the following compound, please?
Returns: the outcome recorded for COc1cccc(O)c1 in this assay. inactive

====

Read-out: Interleukin 17A (IL17A), IL17A (gene 3605)
Assay: BSK_BT_xIL17A: BioMAP Diversity Plus: BT Assay for Interleukin 17A (IL17A) Biomarker Activity (AID 2284229)
Conditions: primary human B cells with PBMC
The source made the active and inactive calls. The calls were made as follows: active = hit-call score of the fitted dose curve at least 0.9, where 1 is the maximum; inactive = score below 0.9.
Returns: one label drawn from y for active, n for inactive

[
  {
    "Compound": "O=C(O)CCC(F)(F)C(F)(F)C(F)(F)C(F)(F)C(F)(F)C(F)(F)F",
    "Label": "n"
  },
  {
    "Compound": "O=S(=O)(O)C(F)(F)C(F)(F)C(F)(F)C(F)(F)C(F)(F)C(F)(F)C(F)(F)C(F)(F)C(F)(F)C(F)(F)F",
    "Label": "n"
  },
  {
    "Compound": "C=COC(=O)C(C)(C)CCCCCC",
    "Label": "n"
  },
  {
    "Compound": "COCN(COC)c1nc(N(COC)COC)nc(N(COC)COC)n1",
    "Label": "n"
  },
  {
    "Compound": "COC1=CC(=O)C[C@@H](C)[C@]12Oc1c(Cl)c(OC)cc(OC)c1C2=O",
    "Label": "n"
  },
  {
    "Compound": "Cc1ccc(C(=O)c2ccccc2)cc1",
    "Label": "n"
  }
]

Returns: the outcome recorded for CC(C)(C)c1ccc(O)c(O)c1 in this assay. y

Returns: the outcome recorded for Cc1ccc(N=Nc2c(O)ccc3ccccc23)c(C)c1 in this assay. n

Returns: the outcome recorded for O=C1OC2(c3ccccc31)c1cc(I)c(O)c(I)c1Oc1c2cc(I)c(O)c1I in this assay. n

Returns: the outcome recorded for C=CC(=O)OCCC(F)(F)C(F)(F)C(F)(F)C(F)(F)C(F)(F)C(F)(F)C(F)(F)C(F)(F)F in this assay. n

Returns: the outcome recorded for CCCCC(CC)C(=O)OCCOCCOCCOCCOC(=O)C(CC)CCCC (stereo unspecified) in this assay. n

====

Read-out: Interleukin 6 (IL6), IL6 (gene 3569)
Assay: BSK_BT_xIL6: BioMAP Diversity Plus: BT Assay for Interleukin 6 (IL6) Biomarker Activity (AID 2284228)
Conditions: primary human B cells with PBMC
Protocol: BSK_BT is a cell-based, multiplexed-readout assay that uses B cell and peripheral blood mononuclear cells, a human vascular primary cell co-culture, with measurements taken at 24 hours after chemical dosing in a microplate: 96-well plate.BSK_BT_xIL6 is an assay component measured in the BSK_BT assay. […] Using a type of cytokine quantitation reporter, gain or loss-of-signal activity can be used to understand protein changes. […]
Activity calls are given as the source filed them. How the source made its calls: active means hit-call score of the fitted dose curve at least 0.9, where 1 is the maximum; inactive means score below 0.9.
Returns: one label drawn from TRUE (active), FALSE (inactive)

Solved cases below.
[
  {
    "Input Smiles": "O=P(O)(O)CCC(F)(F)C(F)(F)C(F)(F)C(F)(F)C(F)(F)C(F)(F)C(F)(F)C(F)(F)F",
    "Label": "FALSE"
  },
  {
    "Input Smiles": "Oc1cc2ccccc2cc1O",
    "Label": "FALSE"
  },
  {
    "Input Smiles": "Cc1ccc(C(=O)c2ccccc2)cc1",
    "Label": "FALSE"
  },
  {
    "Input Smiles": "O=C(NO)c1ccccc1",
    "Label": "TRUE"
  }
]

Could you now look at the following compound, please?
Returns: the outcome recorded for OCCN1CN(CCO)CN(CCO)C1 in this assay. TRUE

====

Experiment: ATG_NRF2_ARE_CIS: Attagene CIS-FACTORIAL HepG2 Assay for human Nuclear Factor Erythroid 2 Related Factor 2 (NFR2) response to Antioxidant Response Elements (ARE) (AID 2282992)
Conditions: HepG2 Attagene ARE/NRF2 reporter, transcription factor activity; actives raise or lower the signal
The source made the active and inactive calls. Rule for the calls: active = hit-call score of the fitted dose curve at least 0.9, where 1 is the maximum; inactive = score below 0.9.
Returns: one label drawn from Yes for active, No for inactive

Solved cases below.
[
  {
    "Compound": "O=P(O)(O)CCC(F)(F)C(F)(F)C(F)(F)C(F)(F)C(F)(F)C(F)(F)C(F)(F)C(F)(F)F",
    "Label": "No"
  },
  {
    "Compound": "CCO[Si](CCC1CCC2OC2C1)(OCC)OCC (centres undefined)",
    "Label": "No"
  },
  {
    "Compound": "O=C1OC2(c3ccccc31)c1cc(I)c(O)c(I)c1Oc1c2cc(I)c(O)c1I",
    "Label": "No"
  }
]

Returns: the outcome recorded for CCOC(=O)c1nc(C(Cl)(Cl)Cl)n(-c2ccc(Cl)cc2Cl)n1 in this assay. Yes

Returns: the outcome recorded for O=C(OC(=O)C(F)(F)C(F)(F)F)C(F)(F)C(F)(F)F in this assay. No

Returns: the outcome recorded for Oc1c(Cl)cc(Cl)cc1Sc1cc(Cl)cc(Cl)c1O in this assay. Yes

Returns: the outcome recorded for FC(F)(F)C(F)(F)C(F)(F)Br in this assay. No
